test: Stability study of levorotatory enantiomer of compounds in solvent (MCT); type: physicochemical; details: dextrorotatory form, MCT solution, 5° C., day 0
assayMetric: Isomer (%)

Answered cases to consult:
{"molecule": "CCOC(=O)OC(CC)OC(=O)[C@H]1CCn2c(C(=O)c3ccccc3)ccc21 (stereo partly drawn) [N15(S)]", "Isomer (%)": 4.59}
{"molecule": "CCOC(=O)OC(C)OC(=O)[C@H]1CCn2c(C(=O)c3ccccc3)ccc21 (stereo partly drawn) [N12(S)]", "Isomer (%)": 3.01}

(a) CCC(OC(=O)OC(C)C)OC(=O)[C@H]1CCn2c(C(=O)c3ccccc3)ccc21 (stereo partly drawn) [N16(S)]
(b) CC(C)OC(=O)OC(C)OC(=O)[C@H]1CCn2c(C(=O)c3ccccc3)ccc21 (stereo partly drawn) [N2(S)]
Problem: Hi, I'm comparing two records. Which one has the lower Isomer (%), a or b ? Answer by stating the label of the chosen item.
Solution: a

---

half-life at 97.6 µM overview
assay: Enzymolysis kinetics experiment of compounds in plasma; conditions: human, plasma
Lab book: enter the figure in min, no units written.

{"compound": "CCCCCCC(=O)OC(C)OC(=O)C1CCn2c(C(=O)c3ccccc3)ccc21 (centres unmarked)", "half-life at 97.6 µM [min]": 73.9}

The record that follows has no half-life at 97.6 µM shown yet.
Problem: half-life at 97.6 µM lookup needed for CCOC(=O)OC(CC)OC(=O)C1CCn2c(C(=O)c3ccccc3)ccc21 (centres unmarked) , thanks.
Solution: 16.9

---

conditions: human, 120 min, 97.6 µM
assayMetric: Content of ketorolac % (%)

Answered cases to consult:
{"compound": "CC(C)OC(=O)OC(C)OC(=O)C1CCn2c(C(=O)c3ccccc3)ccc21 (stereo not drawn)", "valueMeasured": 59.790}
{"compound": "CCC(OC(=O)OC(C)C)OC(=O)C1CCn2c(C(=O)c3ccccc3)ccc21 (stereo not drawn)", "valueMeasured": 70.443}
{"compound": "CCOC(=O)OC(C)OC(=O)C1CCn2c(C(=O)c3ccccc3)ccc21 (stereo not drawn)", "valueMeasured": 87.973}
{"compound": "CCOC(=O)OC(CC)OC(=O)C1CCn2c(C(=O)c3ccccc3)ccc21 (stereo not drawn)", "valueMeasured": 96.910}

(A) CCC(=O)OC(CC)OC(=O)C1CCn2c(C(=O)c3ccccc3)ccc21 (stereo not drawn)
(B) CCCCCCCCOC(=O)OC(C)OC(=O)C1CCn2c(C(=O)c3ccccc3)ccc21 (stereo not drawn)
Problem: Select one: A or B . Criterion: greater recorded Content of ketorolac %. Answer by stating the label of the chosen item.
Solution: A

---

settings: human, 60 min, 97.6 µM
assayMetric: Content of ketorolac % (%)

Answered cases to consult:
{"molecule": "CC(C)OC(=O)C1CCn2c(C(=O)c3ccccc3)ccc21 (stereo not shown) [N11, reference compound]", "unitName": "%", "valueMeasured": 2.270}
{"molecule": "CCOC(=O)OC(CC)OC(=O)C1CCn2c(C(=O)c3ccccc3)ccc21 (stereo not shown)", "unitName": "%", "valueMeasured": 83.957}
{"molecule": "CCC(OC(=O)OC(C)C)OC(=O)C1CCn2c(C(=O)c3ccccc3)ccc21 (stereo not shown)", "unitName": "%", "valueMeasured": 56.793}

(A) CCCCCCCCOC(=O)OC(C)OC(=O)C1CCn2c(C(=O)c3ccccc3)ccc21 (stereo not shown)
(B) CCC(=O)OC(CC)OC(=O)C1CCn2c(C(=O)c3ccccc3)ccc21 (stereo not shown)
(C) CC(C)OC(=O)OC(C)OC(=O)C1CCn2c(C(=O)c3ccccc3)ccc21 (stereo not shown)
(D) CCOC(=O)OC(C)OC(=O)C1CCn2c(C(=O)c3ccccc3)ccc21 (stereo not shown)
Problem: Reorder: Content of ketorolac %, max to min. Field: ranking. Enter the labels in the order requested.
Solution: D, B, C, A

---

assay: Stability study of levorotatory enantiomer of compounds in solvent (MCT); assay type: physicochemical; details: MCT solution, 60° C., day 0
assayMetric: Purity (%)

{"compound": "CC(C)OC(=O)OC(C)OC(=O)[C@H]1CCn2c(C(=O)c3ccccc3)ccc21 (stereo partly drawn) [N2(S)]", "assayMetric": "Purity (%)", "valueMeasured": 99.14}
{"compound": "CCOC(=O)OC(C)OC(=O)[C@H]1CCn2c(C(=O)c3ccccc3)ccc21 (stereo partly drawn) [N12(S)]", "assayMetric": "Purity (%)", "valueMeasured": 99.65}
{"compound": "CCC(OC(=O)OC(C)C)OC(=O)[C@H]1CCn2c(C(=O)c3ccccc3)ccc21 (stereo partly drawn) [N16(S)]", "assayMetric": "Purity (%)", "valueMeasured": 99.71}
{"compound": "CCOC(=O)OC(CC)OC(=O)[C@H]1CCn2c(C(=O)c3ccccc3)ccc21 (stereo partly drawn) [N15(S)]", "assayMetric": "Purity (%)", "valueMeasured": 99.48}

---

assay: Stability study of levorotatory enantiomer of compounds in solvent (MCT); format: physicochemical; details: dextrorotatory form, MCT solution, 25° C., day 0
assayMetric: Isomer (%)

{"molecule": "CC(C)OC(=O)OC(C)OC(=O)[C@H]1CCn2c(C(=O)c3ccccc3)ccc21 (stereo partly drawn) [N2(S)]", "Isomer (%)": 5.65}

(a) CCOC(=O)OC(CC)OC(=O)[C@H]1CCn2c(C(=O)c3ccccc3)ccc21 (stereo partly drawn) [N15(S)]
(b) CCOC(=O)OC(C)OC(=O)[C@H]1CCn2c(C(=O)c3ccccc3)ccc21 (stereo partly drawn) [N12(S)]
Problem: Hi, I'm comparing two records. Which one has the lower Isomer (%), a or b ? Answer by stating the label of the chosen item.
Solution: b
(b: 3.01%, a: 4.59%)
